targetSystem: human carbonic anhydrase I (hCA I) (Homo sapiens)
Construct: from tissue
Sequence (P00915 whole entry): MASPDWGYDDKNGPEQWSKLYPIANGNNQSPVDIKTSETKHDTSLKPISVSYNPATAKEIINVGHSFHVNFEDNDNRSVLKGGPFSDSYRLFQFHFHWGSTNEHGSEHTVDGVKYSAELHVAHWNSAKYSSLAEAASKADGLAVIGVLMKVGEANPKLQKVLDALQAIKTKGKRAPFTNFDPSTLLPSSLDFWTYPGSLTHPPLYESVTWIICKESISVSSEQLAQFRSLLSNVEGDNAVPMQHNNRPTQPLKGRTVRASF
assayNotes: Esterase activity assay (4-nitrophenyl-acetate), hCA I
Assay type: biochemical
conditionInfo: esterase method, 4-nitrophenyl-acetate, 348 nm, 25 °C; read-out: IC50 (esterase) hCA I
Counter-ions that a name gives are not always drawn.
readout: IC50 (µM)
Could you give me the number in µM? Just the number is fine.

In plain terms, CCOC(=O)C1=C(COCCN)NC(C)=C(C(=O)OC)C1c1ccccc1Cl (centres unmarked) has a documented IC50 of 38.5

# molecule CCCCc1oc2ccccc2c1C(=O)c1cc(I)c(OCCN(CC)CC)c(I)c1 [Amiodorane hydrochloride] ; its IC50 = 8.47

The molecule identified as COc1ccc(CN2CCNCC2)c(OC)c1OC [Trimetazidine dihydrochloride] registered its IC50 at 112

Sample "CC(C)c1c(C(=O)Nc2ccccc2)c(-c2ccccc2)c(-c2ccc(F)cc2)n1CC[C@@H](O)C[C@@H](O)CC(=O)O" ; IC50 observed: 7.75

# molecule "O=C(NC[C@H]1CN(c2ccc(N3CCOCC3=O)cc2)C(=O)O1)c1ccc(Cl)s1" ; its IC50 = 189

IC50 in this record for "CCOC(=O)C1=C(C)NC(C)=C(C(=O)OCC)C1c1ccccc1/C=C/C(=O)OC(C)(C)C" : 150

Record COc1ccccc1OCC(O)CN1CCN(CC(=O)Nc2c(C)cccc2C)CC1 (centres unmarked) , field IC50: 600

The measured IC50 associated with "CN1CCc2nc(C(=O)N[C@@H]3C[C@@H](C(=O)N(C)C)CC[C@@H]3NC(=O)C(=O)Nc3ccc(Cl)cn3)sc2C1" reads 45.5
